Numbers sourced from patent US9206432B2.

Tested on: lacZ under control of the tetA promoter (PtetA) in E. coli KM3
Assay type: cell-based
STATED CONDITIONS: Table 6, reverse repressor hits; thifensulfuron, same plate assay format (20 ppm)
# relative β-galactosidase activity, inducer Ts listing for each entry below
Keep the answer to the number alone.

{"columns": ["MOLECULE", "REPORTED VALUE"],
 "data": [
  ["L1-25: library L1 hit with reverse repressor activity (SEQ ID NO: 1206-1213) (protein, rSuR L1-25) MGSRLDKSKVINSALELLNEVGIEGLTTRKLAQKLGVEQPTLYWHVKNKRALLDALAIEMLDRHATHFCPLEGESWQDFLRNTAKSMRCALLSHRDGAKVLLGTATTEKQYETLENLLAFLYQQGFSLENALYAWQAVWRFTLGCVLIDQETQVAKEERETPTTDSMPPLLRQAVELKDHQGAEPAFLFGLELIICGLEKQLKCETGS", 0.64],
  ["L1-41: library L1 hit with reverse repressor activity (SEQ ID NO: 1206-1213) (protein, rSuR L1-41) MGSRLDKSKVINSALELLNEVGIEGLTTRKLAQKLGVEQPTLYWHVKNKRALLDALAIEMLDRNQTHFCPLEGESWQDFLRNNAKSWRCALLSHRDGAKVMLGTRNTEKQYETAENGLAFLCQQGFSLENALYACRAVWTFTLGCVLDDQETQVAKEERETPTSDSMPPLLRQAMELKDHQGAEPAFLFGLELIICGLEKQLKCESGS", 1.46],
  ["L1-18: library L1 hit with reverse repressor activity (SEQ ID NO: 1206-1213) (protein, rSuR L1-18) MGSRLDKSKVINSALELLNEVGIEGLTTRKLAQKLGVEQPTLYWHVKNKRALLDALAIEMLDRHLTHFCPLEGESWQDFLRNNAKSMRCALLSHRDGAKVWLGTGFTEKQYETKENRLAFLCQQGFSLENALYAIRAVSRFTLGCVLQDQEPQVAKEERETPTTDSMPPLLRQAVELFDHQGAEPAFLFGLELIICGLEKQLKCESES", 1.13],
  ["L1-39: library L1 hit with reverse repressor activity (SEQ ID NO: 1206-1213) (protein, rSuR L1-39) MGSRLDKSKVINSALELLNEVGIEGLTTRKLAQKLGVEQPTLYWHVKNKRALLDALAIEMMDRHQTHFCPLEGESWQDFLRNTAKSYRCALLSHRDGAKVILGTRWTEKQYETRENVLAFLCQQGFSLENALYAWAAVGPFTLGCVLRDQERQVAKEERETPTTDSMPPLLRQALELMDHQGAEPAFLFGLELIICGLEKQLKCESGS", 1.42],
  ["L1-21: library L1 hit with reverse repressor activity (SEQ ID NO: 1206-1213) (protein, rSuR L1-21) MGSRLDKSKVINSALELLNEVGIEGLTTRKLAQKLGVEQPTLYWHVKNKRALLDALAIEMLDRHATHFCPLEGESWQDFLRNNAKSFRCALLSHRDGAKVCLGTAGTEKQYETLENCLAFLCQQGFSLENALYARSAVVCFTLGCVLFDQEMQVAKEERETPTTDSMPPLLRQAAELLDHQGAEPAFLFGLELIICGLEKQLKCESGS", 0.79],
  ["L1-33: library L1 hit with reverse repressor activity (SEQ ID NO: 1206-1213) (protein, rSuR L1-33) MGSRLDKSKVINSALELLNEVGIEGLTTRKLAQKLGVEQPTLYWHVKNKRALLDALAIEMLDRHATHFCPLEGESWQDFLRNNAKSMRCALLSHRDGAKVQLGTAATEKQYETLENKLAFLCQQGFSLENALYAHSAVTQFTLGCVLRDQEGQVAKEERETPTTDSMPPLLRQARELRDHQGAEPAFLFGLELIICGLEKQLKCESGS", 5.51]
]}

// query relative β-galactosidase activity, inducer Ts value for entry L1-34: library L1 hit with reverse repressor activity (SEQ ID NO: 1206-1213) (protein, rSuR L1-34) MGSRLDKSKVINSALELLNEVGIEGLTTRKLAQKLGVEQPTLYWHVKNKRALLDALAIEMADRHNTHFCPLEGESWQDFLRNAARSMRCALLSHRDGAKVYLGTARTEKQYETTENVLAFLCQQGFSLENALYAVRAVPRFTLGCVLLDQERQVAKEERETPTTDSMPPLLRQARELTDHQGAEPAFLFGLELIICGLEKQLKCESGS
2.97
